# credit: ChEMBL document CHEMBL1201862

test system: K562; test: NCI tumour cell line growth inhibition, 48 h
The source made the active and inactive calls. No stated cut-off is given here; in the data, active = GI50 up to about 1.1 µM and inactive = higher.
Select the matching outcome among Yes for active, No for inactive

compound=CCN(CC)C(=C(C(Cl)=C(Cl)Cl)[N+](=O)[O-])N(CC)CC assigned_class=No
compound="O=C1NC(=O)C(Cc2ccccc2)(c2cccnc2)N1 (stereo not drawn)" assigned_class=No
compound="N#C/C(=C\\c1ccccc1)C(NO)Nc1ccccc1 (stereo not drawn)" assigned_class=No
compound=CC1(C)N/C(=C\C=O)C(C)(C)N1O assigned_class=No
compound="CC1C2CC(C(S(=O)(=O)O)C2=O)C1(C)C (stereo not drawn)" assigned_class=No

Outcome? `CCOC(=O)/C=C(/C(=O)OCC)n1ccc(=O)n(Cc2cn(COCCOC(C)=O)nn2)c1=O`
No

Outcome? CC1=NN(c2cccc(Cl)c2)C2(SCC(=O)N2c2nc3ccccc3s2)/C1=C\c1ccccc1 (stereo not drawn)
No

Outcome? `CCN(CC)CCN1C(=O)C(=O)N(c2cccc3ccccc23)C1=O`
No

Outcome? COC(=O)C1C(=O)C=CN([C@H](C)c2ccccc2)[C@@H]1Cc1ccc(OC)c(OCc2ccccc2)c1I (stereo partly drawn)
No

Outcome? `CC(C)(C)c1cc2nc(c1)C(C(F)(F)F)(C(F)(F)F)OB(Br)OC2(C(F)(F)F)C(F)(F)F`
Yes

Outcome? `Cc1c(NC(=S)Nc2ccc([N+](=O)[O-])cc2)c(=O)n(-c2ccccc2)n1C`
No

Outcome? CCC1C(=O)C(O)[C@H]2[C@@H]3C(O)CC4=CC(=O)CC[C@]4(C)[C@H]3CC[C@]12C (stereo partly drawn)
No

Outcome? O=C1CCC2(c3ccc(Cl)cc3)Nc3ncccc3N12 (stereo not drawn)
No

Outcome? `O=C1Cc2ccccc2CCc2ccccc21`
No

Outcome? O=c1[nH]c(=O)n(C2CC(O)C(CO)O2)cc1/C=C/Br (stereo not drawn)
No

----------
# key: entry, value: GI50
test system: HL-60; test: NCI tumour cell line growth inhibition, 48 h
Activity calls are given as the source filed them. No stated cut-off is given here; in the data, active = GI50 up to about 1.1 µM and inactive = higher.

Solved cases below.
compound=Oc1c(Cl)c(Cl)c(O)c(CCNc2ccc3ncccc3c2)c1Cl value_type=GI50 test_value="5.07 µM (inactive)"
compound=CSc1c(C)c(C)nn1-c1ccccc1 value_type=GI50 test_value="81.1 µM (inactive)"

We now examine a further compound.
Find the recorded GI50 belonging to O=C(c1ccccc1)c1ccc2c(c1)nc1n2C(c2c(Cl)cccc2Cl)SC1 (stereo not drawn) and report it.
39.4 µM (inactive)

----------
system: U-251; test: NCI tumour cell line growth inhibition, 48 h
Calls of active or inactive are those of the source. No stated cut-off is given here; in the data, active = GI50 up to about 1.1 µM and inactive = higher.
VALUE TYPE: GI50

Solved cases below.
compound="COc1ccc(CCN2C(=O)CC34C=CC(CC3C2=O)O4)cc1OC (centres undefined)" test_value="> 100 µM (inactive)"
compound=CC1=C(C(=O)Nc2ccc(Cl)c(C(=O)OC(C)C)c2)SCCO1 test_value="55.7 µM (inactive)"
compound=Oc1cccc(Nc2cc(O)nc(O)n2)c1 test_value="> 100 µM (inactive)"
compound=COc1c2c(c3c(c1CCC(=O)O)OC(C)(C)C=C3)OC(C)(C)C=C2 test_value="> 100 µM (inactive)"
compound=O=[N+]([O-])c1ccc2nc(O)n[n+]([O-])c2c1 test_value="> 100 µM (inactive)"

Fill in the recorded GI50 for this compound, with U-251 as test system: `N#Cc1nc(Cc2ccccc2)oc1N`
> 100 µM (inactive)

Fill in the recorded GI50 for this compound, with U-251 as test system: NCC(O)CNCC/C=C\C/C=C\C/C=C\C/C=C\C/C=C\C/C=C\CCCCC/C=C\CCNCC(O)CN (centres undefined)
1.72 µM (inactive)

Fill in the recorded GI50 for this compound, with U-251 as test system: `CCOC(=O)CN1CCNCCN(CC(=O)OCC)CCNCC1`
> 100 µM (inactive)

Fill in the recorded GI50 for this compound, with U-251 as test system: `O=S(=O)(O)c1ccc(O)c2ncc(Cl)cc12`
> 100 µM (inactive)
